Target: Calcium-activated potassium channel subunit alpha-1 (Homo sapiens)
Assay: Activation of human BKalpha channel expressed in CHOK1 cells assessed as increase in ionic current at 30 uM relative to control
Assay type: cell-based
Details: CHO-K1
experimental_readout: Activity (%)

Illustrative cases are given below, each with its answer.
[[record]]
compound_structure = "CC(C)(C)c1ccc(COc2ccc3c(c2)[C@@]2(C)CCC[C@](C)(C(=O)O)[C@@H]2CC3)cc1"
experimental_readout = "Activity"
result_units = "%"
meas_value = 116

[[record]]
compound_structure = "C[C@]1(C(=O)O)CCC[C@]2(C)c3cc(OCc4ccc(Cl)cc4)ccc3CC[C@@H]12"
experimental_readout = "Activity"
result_units = "%"
meas_value = 121

[[record]]
compound_structure = "C[C@]1(C(=O)O)CCC[C@]2(C)c3cc(OCC4CCCCC4)ccc3CC[C@@H]12"
experimental_readout = "Activity"
result_units = "%"
meas_value = 124

[[record]]
compound_structure = "CC(C)Oc1ccc2c(c1)[C@@]1(C)CCC[C@](C)(C(=O)O)[C@@H]1CC2"
experimental_readout = "Activity"
result_units = "%"
meas_value = 134

[[record]]
compound_structure = "Cc1ccccc1COc1ccc2c(c1)[C@@]1(C)CCC[C@](C)(C(=O)O)[C@@H]1CC2"
experimental_readout = "Activity"
result_units = "%"
meas_value = 88.9

[[record]]
compound_structure = "C[C@]1(C(=O)O)CCC[C@]2(C)c3cc(OCc4ccc(C(F)(F)F)cc4)ccc3CC[C@@H]12"
experimental_readout = "Activity"
result_units = "%"
meas_value = 185


P = C[C@]1(C(=O)O)CCC[C@]2(C)c3cc(OCc4ccc(C#N)cc4)ccc3CC[C@@H]12
Q = CCCOc1ccc2c(c1)[C@@]1(C)CCC[C@](C)(C(=O)O)[C@@H]1CC2
Exercise: Consider P and Q . Which of these has its Activity at a higher number? # answer = label of selected item
Key: Q

I = Cc1ccc(COc2ccc3c(c2)[C@@]2(C)CCC[C@](C)(C(=O)O)[C@@H]2CC3)cc1
II = C[C@]1(C(=O)O)CCC[C@]2(C)c3cc(OCCCc4ccccc4)ccc3CC[C@@H]12
Exercise: Would you mind telling me which has the lower recorded Activity between I and II ? Give the label under which the chosen entry appears.
Key: I

1 = C[C@]1(C(=O)O)CCC[C@]2(C)c3cc(OCc4ccc(OC(F)(F)F)cc4)ccc3CC[C@@H]12
2 = C[C@]1(C(=O)O)CCC[C@]2(C)c3cc(OCc4ccccc4)ccc3CC[C@@H]12
Exercise: # min-compare on Activity between 1 and 2 Field: selected label. Fill in the label of the entry you choose.
Key: 1
(1: 139%, 2: 209%)

---

Biological target: Calcium-activated potassium channel subunit alpha-1 (Homo sapiens)
Assay: Activation of human BKalpha channel expressed in CHOK1 cells assessed as increase in ionic current at 30 uM relative to control
Assay type: cell-based
Conditions: CHO-K1
experimental_readout: Activity (%)

[[record]]
compound_structure = "C[C@]1(C(=O)O)CCC[C@]2(C)c3cc(OCCOCc4ccccc4)ccc3CC[C@@H]12"
meas_value = 124

[[record]]
compound_structure = "CC(C)c1ccc(COc2ccc3c(c2)[C@@]2(C)CCC[C@](C)(C(=O)O)[C@@H]2CC3)cc1"
meas_value = 125

[[record]]
compound_structure = "COc1ccc(COc2ccc3c(c2)[C@@]2(C)CCC[C@](C)(C(=O)O)[C@@H]2CC3)cc1"
meas_value = 109

[[record]]
compound_structure = "C[C@]1(C(=O)O)CCC[C@]2(C)c3cc(OCc4ccc5ccccc5c4)ccc3CC[C@@H]12"
meas_value = 122

[[record]]
compound_structure = "COC(=O)[C@@]1(C)CCC[C@]2(C)c3cc(OCCCc4ccccc4)ccc3CC[C@@H]12"
meas_value = 116

[[record]]
compound_structure = "C[C@]1(C(=O)O)CCC[C@]2(C)c3cc(OCCN4CCCCC4)ccc3CC[C@@H]12"
meas_value = 103

[[record]]
compound_structure = "C=CCOc1ccc2c(c1)[C@@]1(C)CCC[C@](C)(C(=O)O)[C@@H]1CC2"
meas_value = 148

[[record]]
compound_structure = "Cc1cc(C)cc(COc2ccc3c(c2)[C@@]2(C)CCC[C@](C)(C(=O)O)[C@@H]2CC3)c1"
meas_value = 130

[[record]]
compound_structure = "COc1ccc2c(c1)[C@@]1(C)CCC[C@](C)(C(=O)O)[C@@H]1CC2"
meas_value = 124

[[record]]
compound_structure = "C[C@]1(C(=O)O)CCC[C@]2(C)c3cc(O)ccc3CC[C@@H]12"
meas_value = 207

[[record]]
compound_structure = "COC(=O)[C@@]1(C)CCC[C@]2(C)c3cc(O)ccc3CC[C@@H]12"
meas_value = 118

